biological target: SARS-CoV-2 nucleocapsid N protein wild type (SARS-CoV-2) (UniProt P0DTC9); test: fluorescence anisotropy
READOUT: Kd (nM)
Numeric answer only, unit nM assumed.

Supply measured Kd of NNNNNNNNNN [10-nt degenerate RNA] in your reply. 28
